# MCHC per record follows
Species on record: Rattus norvegicus
experiment.notes: Open TG-GATES - Regimen: Daily Repeat
Format: toxicity, organism-based, Sprague-Dawley
Set-up: regimen Daily Repeat, gender Male, age 6 weeks
measurement.conditions: in vivo, po, 10 mg/kg, […], tissue Blood, route gavage, dose level Low, time 7 day

{"compound": "CC1=C(/C=C/C(C)=C/C=C/C(C)=C/CO)C(C)(C)CCC1 [RETINOL]", "measure.name": "MCHC", "recorded.result": "34.8%"}

Look up MCHC for this compound: CC(C)OC(=O)C(C)(C)Oc1ccc(C(=O)c2ccc(Cl)cc2)cc1 [FENOFIBRATE]
33.1%

Looking for the measured MCHC of `CN(C)CCN(Cc1cccs1)c1ccccn1` , can you help?
33.8%

# MCHC lookup, item CN(C)CCCN1c2ccccc2CCc2ccccc21 [IMIPRAMINE]
33.3%
